Hello, the source for this data is PubChem BioAssay AID2060904, in case you need it.

- Tested on: 349418-098-R-PDC complex spheroid viability
- protocol-details: Anticancer human tumor 349418-098-R-PDC patient-derived lung adenocarcinoma cell line growth inhibition [RAS]
- condition-set: second compound 0.000949 µM; first compound 0.1 µM; hits give low values
readout-label: viability, T/C

Answered cases to consult:
compound | viability, T/C
CC(C)n1nc(-c2ccc3oc(N)nc3c2)c2c(N)ncnc21 + CCn1c(-c2cc(N3CCN(C)CC3)cnc2C(C)OC)c2c3cc(ccc31)-c1csc(n1)CC(NC(=O)C1CC1C)C(=O)N1CCCC(N1)C(=O)OCC(C)(C)C2 | 7.18%
CCC(CC)c1cc(NC2CCC(N)C2)n2nccc2n1 (centres undefined) + CCn1c(-c2cccnc2C(C)OC)c2c3cc(ccc31)N1CCOC(CC(NC(=O)C(C(C)C)N(C)C(=O)C3(F)CCN(C(=O)C#CC(C)(C)N(C)C)CC3)C(=O)N3CCCC(N3)C(=O)OCC(C)(C)C2)C1 | 105%

// for each compound below, give its viability, T/C
1. Nc1ccn(C2OC(CO)C(O)C2(F)F)c(=O)n1 (centres undefined) + CCn1c(-c2cccnc2C(C)OC)c2c3cc(ccc31)N1CCOC(CC(NC(=O)C(C(C)C)N(C)C(=O)C3(F)CCN(C(=O)C#CC(C)(C)N(C)C)CC3)C(=O)N3CCCC(N3)C(=O)OCC(C)(C)C2)C1
2. O=C(c1ccc(F)c(F)c1Nc1ccc(I)cc1F)N1CC(O)([C@@H]2CCCCN2)C1 + CCn1c(-c2cc(N3CCN(C)CC3)cnc2C(C)OC)c2c3cc(ccc31)-c1csc(n1)CC(NC(=O)C1CC1C)C(=O)N1CCCC(N1)C(=O)OCC(C)(C)C2

Response:
1: 4.18%; 2: 7.55%

---

I'd appreciate it if you could supply viability, T/C values for the items below.
- Tested on: 349418-098-R-PDC complex spheroid viability
- protocol-details: Anticancer human tumor 349418-098-R-PDC cell line growth inhibition [RAS];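 also: spheroids exposed to compound for seven days before viability readout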
- condition-set: second compound 1 µM; first compound 0.316 µM; hits give low values
Give bare numbers, in %.

molecule | scale-unit | reported-value
Cc1nc(N2CCC3(CC2)COC(C)C3N)c(CO)nc1Sc1ccnc(N)c1Cl (stereo not drawn) + C#Cc1c(F)ccc2cc(O)cc(-c3ncc4c(N5CC6CCC(C5)N6)nc(OCC56CCCN5CC(F)C6)nc4c3F)c12 | % | 87

// for each molecule below, give its viability, T/C
1. CC(Nc1ccc2c(c1)OCCn1cc(N3C(=O)OCC3C(F)F)nc1-2)C(N)=O (stereo not drawn) + C=CC(=O)N1CCN(c2nc(OCC3CCCN3C)nc3c(F)c(-c4nc(N)cc(C)c4C(F)(F)F)c(Cl)cc23)C(C)C1
2. CCN1CCN(Cc2ccc(Nc3ncc(F)c(-c4cc(F)c5nc(C)n(C(C)C)c5c4)n3)nc2)CC1 + C#Cc1c(F)ccc2cc(O)cc(-c3ncc4c(N5CC6CCC(C5)N6)nc(OCC56CCCN5CC(F)C6)nc4c3F)c12

Response:
1: 28.4; 2: 20.5

---

- System: 349418-098-R-PDC complex spheroid viability
- protocol-details: Anticancer human tumor 349418-098-R-PDC cell line growth inhibition [RAS];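 also: spheroids exposed to compound for seven days before viability readout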
- condition-set: second compound 0.03 µM; first compound 0.03 µM; hits give low values
readout-label: viability, T/C (%)
Numbers only, in %.

Answered cases to consult:
molecule | readout-label | reported-value
CC1(C)CCC(Nc2ncc(C(F)(F)F)c(-c3c[nH]c4c(P(C)(C)=O)c(C#N)ccc34)n2)CN1 (centres undefined) + CCn1c(-c2cccnc2C(C)OC)c2c3cc(ccc31)N1CCOC(CC(NC(=O)C(C(C)C)N(C)C(=O)C3(F)CCN(C(=O)C#CC(C)(C)N(C)C)CC3)C(=O)N3CCCC(N3)C(=O)OCC(C)(C)C2)C1 | viability, T/C | 8.37
CCc1c2c(nc3ccc(O)cc13)-c1cc3c(c(=O)n1C2)COC(=O)[C@]3(O)CC + CCn1c(-c2cc(N3CCN(C)CC3)cnc2C(C)OC)c2c3cc(ccc31)-c1csc(n1)CC(NC(=O)C1CC1C)C(=O)N1CCCC(N1)C(=O)OCC(C)(C)C2 | viability, T/C | 5.22
CC1(C)CCC(Nc2ncc(C(F)(F)F)c(-c3c[nH]c4c(P(C)(C)=O)c(C#N)ccc34)n2)CN1 (centres undefined) + CCn1c(-c2cc(N3CCN(C)CC3)cnc2C(C)OC)c2c3cc(ccc31)-c1csc(n1)CC(NC(=O)C1CC1C)C(=O)N1CCCC(N1)C(=O)OCC(C)(C)C2 | viability, T/C | 9.78

Then there is this molecule:
The molecule identified as CCc1c2c(nc3ccc(O)cc13)-c1cc3c(c(=O)n1C2)COC(=O)[C@]3(O)CC + CCn1c(-c2cccnc2C(C)OC)c2c3cc(ccc31)N1CCOC(CC(NC(=O)C(C(C)C)N(C)C(=O)C3(F)CCN(C(=O)C#CC(C)(C)N(C)C)CC3)C(=O)N3CCCC(N3)C(=O)OCC(C)(C)C2)C1 registered its viability, T/C at 5.2

---

- Test system: 349418-098-R-PDC complex spheroid viability
- protocol-details: Anticancer human tumor 349418-098-R-PDC cell line growth inhibition [RAS];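 also: spheroids exposed to compound for seven days before viability readout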
- condition-set: second compound 0.00949 µM; first compound 3.16 µM; hits give low values
- Source text: RAS pathway inhibitors in Combinations in Complex Spheroids A high-throughput screen of multi-cell type tumor spheroids was designed to identify active combinations of RAS pathway inhibitors and targeted small molecules. Complex spheroids include a stromal component modeled by human endothelial cells (HUVEC) and fibroblasts modeled by human mesenchymal stem cells (MSCs). […] Compounds. […] If the clinical Cmax for an agent had not been determined, the highest concentration tested was 10 microM. […]
readout-label: viability, T/C (%)
Answers are plain numbers, in %.

Answered cases to consult:
compound | readout-label | scale-unit | reported-value
NC1c2ccccc2OC12CCN(c1cnc3c(N4CCCc5ncccc54)n[nH]c3n1)CC2 (stereo not drawn) + CCn1c(-c2cc(N3CCN(C)CC3)cnc2C(C)OC)c2c3cc(ccc31)-c1csc(n1)CC(NC(=O)C1CC1C)C(=O)N1CCCC(N1)C(=O)OCC(C)(C)C2 | viability, T/C | % | 90.7
CCC(CC)c1cc(NC2CCC(N)C2)n2nccc2n1 (stereo not drawn) + CCn1c(-c2cc(N3CCN(C)CC3)cnc2C(C)OC)c2c3cc(ccc31)-c1csc(n1)CC(NC(=O)C1CC1C)C(=O)N1CCCC(N1)C(=O)OCC(C)(C)C2 | viability, T/C | % | 2.15
CC(Nc1ccc2c(c1)OCCn1cc(N3C(=O)OCC3C(F)F)nc1-2)C(N)=O (stereo not drawn) + CCn1c(-c2cc(N3CCN(C)CC3)cnc2C(C)OC)c2c3cc(ccc31)-c1csc(n1)CC(NC(=O)C1CC1C)C(=O)N1CCCC(N1)C(=O)OCC(C)(C)C2 | viability, T/C | % | 20.3
C[C@@H](NC(=O)c1ncnc(N)c1Cl)c1ncc(C(=O)Nc2cc(C(F)(F)F)c(Cl)cn2)s1 + CCn1c(-c2cccnc2C(C)OC)c2c3cc(ccc31)N1CCOC(CC(NC(=O)C(C(C)C)N(C)C(=O)C3(F)CCN(C(=O)C#CC(C)(C)N(C)C)CC3)C(=O)N3CCCC(N3)C(=O)OCC(C)(C)C2)C1 | viability, T/C | % | 45.1
CC1(O)CCCC1n1c(=O)c(C(F)F)cc2cnc(NC3CCN(S(C)(=O)=O)CC3)nc21 (stereo not drawn) + CCn1c(-c2cccnc2C(C)OC)c2c3cc(ccc31)N1CCOC(CC(NC(=O)C(C(C)C)N(C)C(=O)C3(F)CCN(C(=O)C#CC(C)(C)N(C)C)CC3)C(=O)N3CCCC(N3)C(=O)OCC(C)(C)C2)C1 | viability, T/C | % | 15.9
CCC(CC)c1cc(NC2CCC(N)C2)n2nccc2n1 (stereo not drawn) + CCn1c(-c2cccnc2C(C)OC)c2c3cc(ccc31)N1CCOC(CC(NC(=O)C(C(C)C)N(C)C(=O)C3(F)CCN(C(=O)C#CC(C)(C)N(C)C)CC3)C(=O)N3CCCC(N3)C(=O)OCC(C)(C)C2)C1 | viability, T/C | % | 2.14

// for each compound below, give its viability, T/C
1. CC(C)NCC(C(=O)N1CCN(c2ncnc3c2C(C)CC3O)CC1)c1ccc(Cl)cc1 (stereo not drawn) + CCn1c(-c2cc(N3CCN(C)CC3)cnc2C(C)OC)c2c3cc(ccc31)-c1csc(n1)CC(NC(=O)C1CC1C)C(=O)N1CCCC(N1)C(=O)OCC(C)(C)C2
2. Cc1nc(N2CCC3(CC2)COC(C)C3N)c(CO)nc1Sc1ccnc(N)c1Cl (stereo not drawn) + CCn1c(-c2cc(N3CCN(C)CC3)cnc2C(C)OC)c2c3cc(ccc31)-c1csc(n1)CC(NC(=O)C1CC1C)C(=O)N1CCCC(N1)C(=O)OCC(C)(C)C2

Response:
1: 29.3; 2: 114
